The origin of these recorded values is patent US20250188079A1.

# system_under_test: CBP (Homo sapiens (Human))
# protocol_description: HTRF biochemical assay for CBP activity (TR-FRET, bromodomain)
# Assay type: binding
# test_conditions: geometric mean, 10-point 3-fold dilution 33 μM to 1.7 nM, read-out: BROMO IC50 TRF TB CBP (μM gmean)
outcome_measure: IC50

Here's what some known entries look like.
compound | system_under_test | IC50
COC(=O)N1CCc2ccc3c(nc(C4CCCCC4)n3[C@H](C)C[C@H]3CC[C@@H](C(=O)O)CC3)c2C1 [Compound 142] | CBP (Homo sapiens (Human)) | 0.001 to 0.01 µM
COC(=O)N1CCc2ccc3c(nc(-c4ccc(C(=O)O)cc4)n3[C@@H](C)Cn3cc(Cl)cn3)c2C1 [Compound 132] | CBP (Homo sapiens (Human)) | 0.001 to 0.01 µM
COC(=O)N1CCc2ccc3c(nc(C4CCCCC4)n3CC[C@H]3CCC[C@@H](C(=O)O)C3)c2C1 [Compound 177] | CBP (Homo sapiens (Human)) | 0.01 to 0.1 µM

// next item, IC50 requested
INPUT: # IC50 lookup, item COC(=O)N1CCc2ccc3c(nc([C@H]4CC[C@H](C(=O)O)CC4)n3[C@H](C)Cc3ccc(F)c(F)c3)c2C1 [Compound 40]
OUTPUT: 0.001 to 0.01 µM

---

# system_under_test: CBP (Homo sapiens (Human), UniProt Q92793)
# Sequence (Q92793 1085-1192): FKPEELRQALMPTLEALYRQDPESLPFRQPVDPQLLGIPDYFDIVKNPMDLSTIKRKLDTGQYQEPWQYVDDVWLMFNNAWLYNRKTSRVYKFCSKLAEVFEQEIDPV
# protocol_description: HTRF biochemical assay for CBP activity (TR-FRET, bromodomain)
# Assay type: binding
# test_conditions: geometric mean, 10-point 3-fold dilution 33 μM to 1.7 nM, read-out: BROMO IC50 TRF TB CBP (μM gmean)
outcome_measure: IC50

Some compounds with recorded IC50:
compound | test_result
COC(=O)N1CCc2ccc3c(nc([C@H]4CC[C@H](C(=O)O)CC4)n3C[C@H]3CCc4ccccc4C3)c2C1 | 0.001 to 0.01 µM
CNC(=O)N1CCc2ccc3c(nc([C@H]4CC[C@H](C(=O)O)CC4)n3[C@@H](C)Cc3ccccc3)c2C1 | 0.01 to 0.1 µM
COC(=O)N1CCc2ccc3c(nc(C4CCCCC4)n3C[C@@H](C(=O)O)c3cc(F)c(Cl)cc3OC)c2C1 (single isomer, unassigned) | 0.001 to 0.01 µM
COC(=O)N1CCc2ccc3c(nc([C@H]4CC[C@H](C(=O)O)CC4)n3[C@H](C)C[C@H]3CCCCO3)c2C1 | 0.01 to 0.1 µM
COC(=O)N1CCc2ccc3c(nc(C4CCCCC4)n3CC[C@H]3CCCC[C@H]3C(=O)O)c2C1 | 0.01 to 0.1 µM

Please examine the following record next.
INPUT: Report IC50 for COC(=O)N1CCc2ccc3c(nc([C@H]4CC[C@H](C(=O)O)CC4)n3[C@@H](C)Cc3ccccc3C)c2C1 please.
OUTPUT: 0.001 to 0.01 µM

---

Below: a set of entries, each annotated with reported IC50.
# system_under_test: CBP (Homo sapiens (Human))
# protocol_description: HTRF biochemical assay for CBP activity (TR-FRET, bromodomain)
# Assay type: binding
# test_conditions: geometric mean, 10-point 3-fold dilution 33 μM to 1.7 nM, read-out: BROMO IC50 TRF TB CBP (μM gmean)

structure_smiles | IC50
COC(=O)N1CCc2ccc3c(nc([C@H]4CC[C@H](C(=O)O)CC4)n3[C@H](C)CC3CCOCC3)c2C1 | 0.01 to 0.1 µM
COC(=O)N1CCc2ccc3c(nc([C@H]4CCCOC4)n3C[C@@H](C(=O)O)c3ccc(C)cc3)c2C1 | 0.001 to 0.01 µM
COC(=O)N1CCc2ccc3c(nc([C@@H]4CCC[C@@H](C(=O)O)C4)n3[C@H](C)Cc3ccc(F)c(F)c3)c2C1 | 0.01 to 0.1 µM

INPUT: Record lookup: for CBP (Homo sapiens (Human)), what IC50 belongs to COC(=O)N1CCc2ccc3c(nc([C@H]4CC[C@H](C(=O)O)CC4)n3[C@@H](C)Cc3ccccc3F)c2C1 ?
OUTPUT: 0.1 to 1 µM
